# Experiment Description: solvent given as SMILES
# Experimental Setup: in O
Listed next: entries and their corresponding absorption maximum.
Experimental Endpoint: absorption maximum (nm)

Compound	Experimental Endpoint	Reported Value
Nc1nc2c(ncn2[C@H]2C[C@H](O)[C@@H](CO)O2)c(=O)[nH]1	absorption maximum	274
O=[N+]([O-])c1cccc(O)c1	absorption maximum	328
COc1cc(N2CCOCCOCCN(c3cc(OC)c(NC(=O)c4ccc(-c5c6cc(Cl)c(=O)cc-6oc6cc([O-])c(Cl)cc56)c(C(=O)[O-])c4)cc3OC)CCOCC2)c(OC)cc1NC(=O)c1ccc(-c2c3cc(Cl)c(=O)cc-3oc3cc([O-])c(Cl)cc23)c(C(=O)[O-])c1	absorption maximum	507
CCCCCn1c2ccccc2c(=O)c2ccccc21	absorption maximum	394
O=C([O-])COc1cc(NC(=O)c2ccc(-c3c4cc(Cl)c(=O)cc-4oc4cc(O)c(Cl)cc34)c(C(=O)[O-])c2)ccc1N(CC(=O)[O-])CC(=O)[O-]	absorption maximum	506
CN(C)c1ccc(/C=C/c2cc[n+](C)c3ccccc23)cc1	absorption maximum	510
CC1=N/C(=C\c2ccccc2N(C)C)C(=O)N1C	absorption maximum	346
O=C(O)c1cc2c(ccc3ccccc32)oc1=O	absorption maximum	376
N#Cc1cc2ccc([O-])cc2oc1=O	absorption maximum	408
CN(C)c1ccc2c(-c3ccc(N)cc3C(=O)[O-])c3ccc(=[N+](C)C)cc-3oc2c1	absorption maximum	544
CN(C)c1ccc2c(-c3cc(N)ccc3C(=O)[O-])c3ccc(=[N+](C)C)cc-3oc2c1	absorption maximum	544
Cc1nc2c(c[n+]1C)CN1C(=O)N([C@H]3O[C@@H](CO)[C@H](O)[C@@H]3O)C=CC1=N2	absorption maximum	384
O=[N+]([O-])c1ccc(O)cc1	absorption maximum	401
CC[n+]1c(-c2ccccc2)c2cc(N)ccc2c2ccc(NC(N)=[NH2+])cc21	absorption maximum	444
CC[n+]1c(-c2ccccc2)c2cc(N)ccc2c2ccc(N)cc21	absorption maximum	480
COc1cc(/C=C2/SC(=O)NC2=O)ccc1O	absorption maximum	355
[NH3+]C(Cc1c[nH]c2ccccc12)C(=O)[O-] (stereo not given)	absorption maximum	277
[NH3+]c1ccc2ccc(O)cc2c1	absorption maximum	328
CC1=N/C(=C\c2ccc(N(C)C)cc2)C(=O)N1C	absorption maximum	446
COc1ccc2oc(-c3cc4cc(OC)ccc4oc3=O)cc2c1	absorption maximum	347

* * *

# Experiment Description: solvent given as SMILES
# Experimental Setup: in CCOCC
Please note: absorption maximum exactly at 400 nm is NOT MET. Only values below 400 nm get MET.

> print(dat)
                                    compound      cat
 1          CC/C=C/C=C/C=C/C=C/CCCCCCCC(=O)O      MET
 2          Cc1cccc(NC(=O)c2ccc(N(C)C)cc2)c1      MET
 3  CC(C)[Si]1(C(C)C)c2cc(C=C(C#N)C#N)ccc2-c2ccc(N(C)C)cc21  NOT MET
 4                   O=c1ccc2cc3c(cc2o1)OCC3      MET
 5  CC(C)(C)c1ccc(-c2nc3c4ccc(-c5ccccc5)cc4c4cc(-c5ccccc5)ccc4c3n2-c2ccc(C(C)(C)C)cc2)cc1      MET
 6  CN(C)c1ccc(C2=Cc3c4ccccc4c4ccccc4[n+]3[B-](F)(F)O2)cc1  NOT MET
 7  c1ccc(-n2c(-c3ccc(-c4ccc(-c5ccc(-c6nc7c8ccccc8c8ccccc8c7n6-c6ccccc6)cc5)cc4)cc3)nc3ccccc32)cc1      MET
 8  c1ccc(-c2nc(-c3ccc(-c4ccc(-n5c6ccccc6c6ccccc65)cc4)cn3)oc2-c2ccccc2)cc1      MET
 9  CC1=C(C(C)(C)C)C(C)=[N+]2C1=C(C)c1c(C)c(C(C)(C)C)c(C)n1[B-]2(F)F  NOT MET
10  O=[N+]([O-])c1ccc(F)cc1C1CC(c2cccc3ccccc23)=NN1c1ccccc1 (centres undefined)      MET
11  CN(C)c1ccc(/C=C/C=C2\CC/C(=C\c3ccc(N(C)C)cc3)C2=O)cc1  NOT MET
12              CC(=O)c1nc(-c2ccc(C)cc2)oc1C      MET
13     O=C1c2ccccc2C(=O)N1c1ccc(Cn2cncn2)cc1      MET
14  c1ccc(-c2ccc(-c3ccc(N(c4ccccc4)c4ccccc4)cc3)c3nsnc23)cc1  NOT MET
15  COC(=O)C(Cc1ccc2oc(-c3ccc(N(C)C)cc3)nc2c1)NC(=O)OC(C)(C)C (centres undefined)      MET
16          Cc1c2ccncc2c(C)c2c1[nH]c1ccccc12      MET
17  CCCCN1c2ccccc2Sc2cc(/C=C/C3=Nc4ccc5ccccc5c4C3(C)C)ccc21  NOT MET

* * *

# Experiment Description: solvent given as SMILES
# Experimental Setup: in ClCCl
Experimental Endpoint: absorption maximum (nm)

Smiles Text	Experimental Endpoint	Reported Value
Cc1cc2ccccc2c2c1c1ccccc1n2C	absorption maximum	300
COC(=O)/C=C/C=C/C1=[N+]2C(=C(c3c(C)cc(C)cc3C)c3ccc(/C=C/C=C/C(=O)OC)n3[B-]2(F)F)C=C1	absorption maximum	641
c1ccc(-c2ccc3c4ccc(-c5ccccc5)c5c(-c6ccccc6)ccc(c6ccc(-c7ccccc7)c2c36)c54)cc1	absorption maximum	486
CCCCCCOc1cc(/C=C/c2cc(OCCCCCC)c(/C=C/c3cc(OCCCCCC)c(/C=C4\C(=O)c5ccccc5C4=C(C#N)C#N)cc3OCCCCCC)cc2OCCCCCC)c(OCCCCCC)cc1/C=C1\C(=O)c2ccccc2C1=C(C#N)C#N	absorption maximum	611
CCN(CC)c1ccc([N+]2=Cc3ccc4c5c(ccc4c3O[B-]2(c2ccccc2)c2ccccc2)C=[N+](c2ccc([N+](=O)[O-])cc2)[B-](c2ccccc2)(c2ccccc2)O5)cc1	absorption maximum	559
F[B-]12Oc3ccccc3-c3c4[n+]5c(c([n+]31)-c1ccccc1O2)-c1ccccc1O[B-]5(F)Oc1ccccc1-4	absorption maximum	553
COc1cc(OC)cc(C2=[O+][B-](F)(F)OC(c3cccs3)=C2)c1	absorption maximum	391

* * *

# key: entry, value: absorption maximum
# Experiment Description: solvent given as SMILES
# Experimental Setup: in ClC(Cl)(Cl)Cl
Experimental Endpoint: absorption maximum (nm)

> print(dat)
                                 smiles.text   u  reported.value
 1  F[B-]1(F)OC(c2ccccc2)=CC(c2ccccc2)=[O+]1  nm             375
 2  CC(C)(C)c1cc2ccc3cccc4c3c2c(c1)c1nc2c3cc(C(C)(C)C)cc5ccc6cccc(c(=O)n2c41)c6c53  nm             395
 3  CN(C)c1ccc(/C=C2\CC/C(=C\c3ccc(C#N)cc3)C2=O)cc1  nm             446
 4  COc1ccc2c(=O)c3c([nH]c2c1)-c1ccccc1NC3(C)C  nm             404
 5  O=C1c2ccc3c4ccc5c6c(ccc(c7ccc(c2c37)C(=O)N1c1ccncc1)c64)C(=O)N(c1ccncc1)C5=O  nm             524
 6  O=Cc1ccc(N(c2ccc(C=O)cc2)c2ccc(-c3ccc4c(c3)C(=O)c3ccccc3C4=O)cc2)cc1  nm             376
 7  CC(C)(C)c1cc2ccc3cc(C(C)(C)C)cc4c3c2c(c1)c(=O)n1c4nc2c3ccccc3c3ccccc3c21  nm             369
 8  CC(=O)[B-]1(C(C)=O)OC(C)=CC(c2ccc3ccccc3c2)=[O+]1  nm             380
 9  O=C(O)CCCc1cc(C#Cc2ccccc2)c2ccc3c(C#Cc4ccccc4)cc(C#Cc4ccccc4)c4ccc1c2c34  nm             445
10  O=C1O[B-]2(OC1=O)OC(c1ccccc1)=CC(c1ccc3ccccc3c1)=[O+]2  nm             435
11  CN(C)c1ccc(/C=C/C=C2\CC/C(=C\c3ccc(N(C)C)cc3)C2=O)cc1  nm             449
12  CC(=O)[B-]1(C(C)=O)OC(c2ccccc2)=CC(c2ccccc2)=[O+]1  nm             382
13  CC(=O)OC[C@H]1O[C@@H]([C@@H]2C=CC(=S)NC2=O)[C@H](OC(C)=O)[C@@H]1OC(C)=O  nm             420
14    COc1ccc2c3cccc4c(OC)ccc(c5cccc1c52)c43  nm             460
15    O=CN1N=C(c2ccc(Br)cc2)C[C@@H]1c1ccccc1  nm             306
16  CC(=O)[B-]1(C(C)=O)OC(c2ccc3ccccc3c2)=CC(c2ccc3ccccc3c2)=[O+]1  nm             415
17  Cc1ccc(-c2cc(-c3ccccc3)c(C#N)c(=S)[nH]2)cc1  nm             446

Data provenance is the Deep4Chem optical property database.
